# target-of-assay: Histamine H3 receptor (Cavia porcellus, UniProt Q9JI35)
# Sequence (Q9JI35 whole entry): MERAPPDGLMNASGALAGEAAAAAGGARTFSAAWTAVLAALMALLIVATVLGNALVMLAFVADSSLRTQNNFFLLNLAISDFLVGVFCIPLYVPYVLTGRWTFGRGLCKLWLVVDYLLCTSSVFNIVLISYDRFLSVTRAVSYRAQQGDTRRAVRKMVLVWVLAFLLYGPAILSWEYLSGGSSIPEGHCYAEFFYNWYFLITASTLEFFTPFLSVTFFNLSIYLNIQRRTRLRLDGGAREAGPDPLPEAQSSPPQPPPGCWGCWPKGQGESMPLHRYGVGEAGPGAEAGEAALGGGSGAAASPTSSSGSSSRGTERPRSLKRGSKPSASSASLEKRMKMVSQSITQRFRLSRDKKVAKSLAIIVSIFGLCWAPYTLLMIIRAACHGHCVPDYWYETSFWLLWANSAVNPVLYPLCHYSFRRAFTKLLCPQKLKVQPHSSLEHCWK
# method-summary: H3 -antagonist potency determined in electrically stimulated guinea-pig ileum
# Assay type: functional, tissue-based
# condition-details: read-out: pA2 (converted)
Lab note: class by Kb, see lo (below 20 nM), mid (20 nM to below 50 nM), hi (50 nM or more)

- query-smiles: "O=S(=O)(NCCCCc1cnc[nH]1)c1ccccc1"
  discrete-label: "mid"
- query-smiles: "O=S(=O)(NCCCCc1c[nH]cn1)c1ccc(F)cc1"
  discrete-label: "hi"
- query-smiles: "O=S(=O)(c1ccc(Cl)cc1)N(CCCCc1c[nH]cn1)CCCCn1ccnc1"
  discrete-label: "lo"
- query-smiles: "O=S(=O)(c1ccc(Cl)cc1)N(CCCCc1c[nH]cn1)Cc1ccc(Cl)cc1"
  discrete-label: "lo"
- query-smiles: "O=S(=O)(NCCCCCc1cnc[nH]1)c1ccc(Cl)cc1"
  discrete-label: "hi"
- query-smiles: "Cc1ccc(S(=O)(=O)NCCCCc2cnc[nH]2)cc1"
  discrete-label: "mid"
- query-smiles: "O=S(=O)(NCCCCCc1c[nH]cn1)c1ccccc1"
  discrete-label: "hi"
- query-smiles: "O=[N+]([O-])c1ccc(S(=O)(=O)NCCCCCc2c[nH]cn2)cc1"
  discrete-label: "lo"
- query-smiles: "CC(C)S(=O)(=O)NCCCCc1cnc[nH]1"
  discrete-label: "hi"
- query-smiles: "O=S(=O)(NCCCCc1c[nH]cn1)c1ccc(C(F)(F)F)cc1"
  discrete-label: "lo"
- query-smiles: "CC(C)(C)c1ccc(S(=O)(=O)NCCCCc2c[nH]cn2)cc1"
  discrete-label: "lo"

* * *

# target-of-assay: Histamine H3 receptor (Cavia porcellus)
# method-summary: H3 -antagonist potency determined in electrically stimulated guinea-pig ileum
# Type: functional, tissue-based
# condition-details: read-out: pA2 (converted)
We begin with a simple list: items and their reported Kb.
measured-endpoint: Kb (nM)

- query-smiles: "O=S(=O)(NCCCCc1cnc[nH]1)c1ccc(Cl)cc1"
  assay-result: 12.6
- query-smiles: "O=S(=O)(Cc1ccccc1)NCCCCc1c[nH]cn1"
  assay-result: 31.6
- query-smiles: "CC(C)(C)c1ccc(S(=O)(=O)NCCCCCc2c[nH]cn2)cc1"
  assay-result: 10
- query-smiles: "O=S(=O)(NCCCCCc1c[nH]cn1)c1ccc(OC(F)(F)F)cc1"
  assay-result: 10
- query-smiles: "O=S(=O)(NCCCCc1c[nH]cn1)c1ccc(OC(F)(F)F)cc1"
  assay-result: 10
- query-smiles: "CN(CCCCc1c[nH]cn1)S(=O)(=O)c1ccc(Cl)cc1"
  assay-result: 5.01

* * *

# target-of-assay: Histamine H3 receptor (Cavia porcellus, UniProt Q9JI35)
pKi: −log10 of the molar value.
Threshold rule: pKi greater than or equal to 8 is rule met; below that, rule not met.

- query-smiles: "O=S(=O)(NCCCCc1c[nH]cn1)c1ccc(F)cc1"
  discrete-label: "rule not met"
- query-smiles: "O=S(=O)(c1ccc(Cl)cc1)N(CCCCc1c[nH]cn1)CCCCn1ccnc1"
  discrete-label: "rule met"
- query-smiles: "O=S(=O)(NCCCCCc1c[nH]cn1)c1ccc(OC(F)(F)F)cc1"
  discrete-label: "rule not met"

* * *

We begin with a simple list: items and their reported ED50.
# target-of-assay: Histamine H3 receptor (Cavia porcellus) (UniProt Q9JI35)
# Sequence (Q9JI35 whole entry): as above
# method-summary: Evaluated in vivo for its H3 receptor antagonist activity in the CNS hypertension model
# Assay type: functional, organism-based
measured-endpoint: ED50 (mg/kg)

- query-smiles: "O=S(=O)(NCCCCc1c[nH]cn1)c1ccc(Cl)cc1"
  measured-endpoint: "ED50"
  assay-result: 2.2
- query-smiles: "O=S(=O)(NCCCCCc1c[nH]cn1)c1ccc(Cl)cc1"
  measured-endpoint: "ED50"
  assay-result: 3
- query-smiles: "O=S(=O)(NCCCCc1c[nH]cn1)c1ccc(C(F)(F)F)cc1"
  measured-endpoint: "ED50"
  assay-result: 3
- query-smiles: "O=[N+]([O-])c1ccc(S(=O)(=O)NCCCCCc2c[nH]cn2)cc1"
  measured-endpoint: "ED50"
  assay-result: 2.7
- query-smiles: "O=S(=O)(c1ccc(Cl)cc1)N(CCCCc1c[nH]cn1)Cc1ccc(Cl)cc1"
  measured-endpoint: "ED50"
  assay-result: 3
- query-smiles: "CC(C)(C)c1ccc(S(=O)(=O)NCCCCc2c[nH]cn2)cc1"
  measured-endpoint: "ED50"
  assay-result: 3
